Data origin: patent US20070129403A1

# measured_on: cloned human Kv2.1 potassium channels (Homo sapiens)
# Sequence (Q14721 whole entry): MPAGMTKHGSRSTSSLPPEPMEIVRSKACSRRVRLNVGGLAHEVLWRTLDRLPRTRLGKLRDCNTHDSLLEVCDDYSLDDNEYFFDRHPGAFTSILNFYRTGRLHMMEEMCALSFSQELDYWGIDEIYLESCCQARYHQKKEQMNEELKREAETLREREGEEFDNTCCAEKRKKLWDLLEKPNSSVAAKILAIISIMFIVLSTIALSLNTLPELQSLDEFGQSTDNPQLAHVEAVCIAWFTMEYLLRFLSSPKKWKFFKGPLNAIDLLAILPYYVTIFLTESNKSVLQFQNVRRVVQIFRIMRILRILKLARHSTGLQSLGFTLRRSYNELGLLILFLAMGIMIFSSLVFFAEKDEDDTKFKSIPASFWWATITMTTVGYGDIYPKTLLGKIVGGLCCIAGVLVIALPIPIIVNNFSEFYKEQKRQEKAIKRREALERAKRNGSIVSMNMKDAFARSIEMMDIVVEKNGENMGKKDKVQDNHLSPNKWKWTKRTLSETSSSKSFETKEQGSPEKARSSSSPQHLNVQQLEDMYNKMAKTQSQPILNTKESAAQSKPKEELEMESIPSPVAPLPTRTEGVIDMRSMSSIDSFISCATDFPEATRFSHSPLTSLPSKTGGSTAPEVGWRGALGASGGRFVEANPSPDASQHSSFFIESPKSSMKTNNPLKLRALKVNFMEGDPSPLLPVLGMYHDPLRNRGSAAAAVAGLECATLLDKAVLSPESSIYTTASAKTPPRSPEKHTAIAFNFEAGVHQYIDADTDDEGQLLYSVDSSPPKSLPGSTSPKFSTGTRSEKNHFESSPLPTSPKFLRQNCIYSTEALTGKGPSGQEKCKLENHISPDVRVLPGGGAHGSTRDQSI
# test_method_notes: Whole-cell patch clamp, cloned human Kv2.1 channels expressed in U-373MG cells
# stated_conditions: U-373MG cells expressing human Kv2.1; read-out: IC50, block of Kv2.1 current
value_type: IC50 (µM)
Number only, in µM; omit the unit.

Input: Fill in the blank: the reported IC50 of CCCN(c1ccncc1F)n1cc(C)c2ccccc21 [HP184] is ____.
Output: 5.6
